Molecular target: T1, CRBN, Q96SW2;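 further: pooled lentiviral library of zinc finger degron-EGFP fusions in mCherry-positive Jurkat cells, FACS-sorted after compound exposure, with degron abundance counted by next-generation sequencing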
T1 chain: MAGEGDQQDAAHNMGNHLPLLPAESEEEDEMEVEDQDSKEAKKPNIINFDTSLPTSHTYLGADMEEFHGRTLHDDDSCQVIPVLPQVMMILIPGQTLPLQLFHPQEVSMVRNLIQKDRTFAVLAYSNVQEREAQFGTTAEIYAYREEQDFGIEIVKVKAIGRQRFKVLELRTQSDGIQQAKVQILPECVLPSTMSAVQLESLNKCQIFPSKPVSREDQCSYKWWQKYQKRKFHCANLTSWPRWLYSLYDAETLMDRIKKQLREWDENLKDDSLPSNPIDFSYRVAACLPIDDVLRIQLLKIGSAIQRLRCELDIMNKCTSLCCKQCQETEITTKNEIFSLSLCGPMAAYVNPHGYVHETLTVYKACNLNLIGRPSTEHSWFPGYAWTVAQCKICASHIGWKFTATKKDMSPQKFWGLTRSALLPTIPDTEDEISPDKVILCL
Test: log2 fold change of degron read counts, EGFP-low vs EGFP+ sorted cells (limma voom), compound-induced degradation; higher = more compound-induced degradation of the degron-EGFP fusion; degrons are variants of IKZF1/3 zinc finger 2; compound dose not given here
Settings: Jurkat; 18 h; compound: compound 22 (5-morpholino-thalidomide)
In all, about 8,300 sequences were measured (“log2 fold change of degron read counts, EGFP-low vs EGFP+ sorted cells (limma voom), compound-induced degradation”: median about -1.1, highest 2% from about 3.2 on). This is one part of a sample in which the highest values are shown more often than they occur.
valueType: log2 fold change of degron read counts
Could you keep your reply to the number by itself?

FCCNICGAKFTQKGNLLRHIKL [46F_47C_49N_50I_52G_53A_54K_55F_67L_, Q9UKT9]	0.951
FWCEQCGAIFTQKGNLLRHIKL [46F_47W_49E_50Q_52G_53A_54I_55F_67L_, Q9UKT9]	0.552
FLCDICGADFTQKGNLLRHIKL [46F_47L_49D_50I_52G_53A_54D_55F_67L_, Q9UKT9]	-3.49

Exercise: Quick one: give measured log2 fold change of degron read counts for FECDQCGANFTQKGNLLRHIKL [46F_47E_49D_50Q_52G_53A_54N_55F_67L_, Q9UKT9]
Solution: -4.58

Exercise: Quick one: give measured log2 fold change of degron read counts for FICDICGARFTQKGNLLRHIKL [46F_47I_49D_50I_52G_53A_54R_55F_67L_, Q9UKT9]
Solution: 1.75

Exercise: Quick one: give measured log2 fold change of degron read counts for LFCPICGFMCTQKGNLLRHIKL [46L_47F_49P_50I_52G_53F_54M_55C_67L_, Q9UKT9]
Solution: 2.77

Exercise: Quick one: give measured log2 fold change of degron read counts for FTCEICGAWFTQKGNLLRHIKL [46F_47T_49E_50I_52G_53A_54W_55F_67L_, Q9UKT9]
Solution: -0.479
